Tested on: Rattus norvegicus
ASSAY_PROCEDURE: Hypotensive effect in Sprague-Dawley rat assessed as decrease in blood pressure at 19.6 to 65 nmol/kg, iv relative to control
Format: functional
CONDITIONS: dose 19.6-65 nmol/kg
METRIC: Activity

Note to self: Activity recorded for "CC(C)C[C@@H]1NC(=O)[C@H](CCCNC(=N)N)NC(=O)[C@@H](N)C/C=C\C[C@@H](C(=O)N[C@@H](CCCCN)C(=O)NCC(=O)N2CCC[C@H]2C(=O)N[C@H](Cc2cccc3ccccc23)C(=O)O)NC(=O)[C@H](CO)NC1=O" was -24 mmHg

----------
ASSAYED_TARGET: UniProt:P35414
Sequence (P35414 whole entry): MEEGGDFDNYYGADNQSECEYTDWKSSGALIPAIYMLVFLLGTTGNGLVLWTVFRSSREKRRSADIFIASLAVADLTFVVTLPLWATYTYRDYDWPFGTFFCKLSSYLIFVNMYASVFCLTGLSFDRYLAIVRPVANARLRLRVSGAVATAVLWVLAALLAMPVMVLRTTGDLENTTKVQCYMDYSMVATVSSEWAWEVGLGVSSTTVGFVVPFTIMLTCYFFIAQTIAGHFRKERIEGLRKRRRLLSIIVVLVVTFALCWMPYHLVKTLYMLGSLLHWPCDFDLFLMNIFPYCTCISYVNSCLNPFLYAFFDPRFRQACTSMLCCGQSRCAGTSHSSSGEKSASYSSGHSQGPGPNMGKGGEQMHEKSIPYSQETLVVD
ASSAY_PROCEDURE: Agonist activity at human APJ expressed in HEK293 cells assessed as maximal efficacy for dissociation of G alphai1 from the G beta gamma subunit by BRET-based G protein dissociation assay relative to control
Type: functional, cell-based
CONDITIONS: filed as agonist
// values below are reported Emax
Give the value in % but do not write % after it.

Worked examples, 3 molecules total:
{"columns": ["STRUCTURE_NOTATION", "ASSAYED_TARGET", "METRIC", "MEASURED_RESULT"],
 "data": [
  ["CCCC[C@H](NC(=O)[C@@H]1CCCN1C(=O)CNC(=O)[C@H](CCCCN)NC(=O)[C@@H]1C/C=C\\C[C@H](N)C(=O)N[C@@H](CCCNC(=N)N)C(=O)N[C@@H](CC(C)C)C(=O)N[C@@H](CO)C(=O)N1)C(=O)O", "UniProt:P35414", "Emax", 99],
  ["CCCC[C@H](NC(=O)[C@@H]1CCCN1C(=O)CNC(=O)[C@H](CCCCN)NC(=O)[C@@H]1CCN(S(=O)(=O)c2ccccc2[N+](=O)[O-])C/C=C/C[C@H](N)C(=O)N[C@@H](CCCNC(=N)N)C(=O)N[C@@H](CC(C)C)C(=O)N[C@@H](CO)C(=O)N1)C(=O)N1CCC[C@H]1C(=O)N[C@@H](Cc1ccccc1)C(=O)O", "UniProt:P35414", "Emax", 106],
  ["CCCC[C@H](NC(=O)[C@@H]1CCCN1C(=O)CNC(=O)[C@H](CCCCN)NC(=O)[C@@H]1CCNC/C=C/C[C@H](NC(=O)[C@H](CCCNC(=N)N)NC(=O)[C@@H]2CCC(=O)N2)C(=O)N[C@@H](CCCNC(=N)N)C(=O)N[C@@H](CC(C)C)C(=O)N[C@@H](CO)C(=O)N1)C(=O)N1CCC[C@H]1C(=O)N[C@@H](Cc1ccccc1)C(=O)O", "UniProt:P35414", "Emax", 100]
]}

Note to self: Emax recorded for "CCCC[C@H](NC(=O)[C@@H]1CCCN1C(=O)CNC(=O)[C@H](CCCCN)NC(=O)[C@@H]1C/C=C\C[C@H](NC(=N)N)C(=O)N[C@@H](CCCNC(=N)N)C(=O)N[C@@H](CC(C)C)C(=O)N[C@@H](CO)C(=O)N1)C(=O)N1CCC[C@H]1C(=O)N[C@@H](Cc1ccccc1)C(=O)O" was 103

Note to self: Emax recorded for "CCCC[C@H](NC(=O)[C@@H]1CCCN1C(=O)CNC(=O)[C@H](CCCCN)NC(=O)[C@@H]1Cc2cncn2C/C=C/C[C@H](NC(=O)[C@H](CCCNC(=N)N)NC(=O)[C@@H]2CCC(=O)N2)C(=O)N[C@@H](CCCNC(=N)N)C(=O)N[C@@H](CC(C)C)C(=O)N[C@@H](CO)C(=O)N1)C(=O)N1CCC[C@H]1C(=O)N[C@@H](Cc1ccccc1)C(=O)O" was 99

Note to self: Emax recorded for "CCCC[C@H](NC(=O)[C@@H]1CCCN1C(=O)CNC(=O)[C@H](CCCCN)NC(=O)[C@@H]1C/C=C\C[C@H](N)C(=O)N[C@@H](CCCNC(=N)N)C(=O)N[C@@H](CC(C)C)C(=O)N[C@@H](CO)C(=O)N1)C(=O)N1CCC[C@H]1C(=O)N[C@@H](Cc1ccccc1)C(=O)O" was 100

Note to self: Emax recorded for "CCCC[C@H](NC(=O)[C@@H]1CCCN1C(=O)CNC(=O)[C@H](CCCCN)NC(=O)[C@@H]1CCN(C)C/C=C/C[C@H](NC(=O)[C@H](CCCNC(=N)N)NC(=O)[C@@H]2CCC(=O)N2)C(=O)N[C@@H](CCCNC(=N)N)C(=O)N[C@@H](CC(C)C)C(=O)N[C@@H](CO)C(=O)N1)C(=O)N1CCC[C@H]1C(=O)N[C@@H](Cc1ccccc1)C(=O)O" was 102

Note to self: Emax recorded for "CCCC[C@H](NC(=O)[C@@H]1CCCN1C(=O)CNC(=O)[C@H](CCCCN)NC(=O)[C@@H]1C/C=C\C[C@H](NC(=O)[C@H](CCCNC(=N)N)NC(=O)[C@@H]2CCC(=O)N2)C(=O)N[C@@H](CCCNC(=N)N)C(=O)N[C@@H](CC(C)C)C(=O)N[C@@H](CO)C(=O)N1)C(=O)N1CCC[C@H]1C(=O)N[C@@H](Cc1ccccc1)C(=O)O" was 101
